apparent Kd reference
# System: MS2 coat protein
# ASSAY SUMMARY: apparent Kd, MS2 coat protein; higher = weaker binding; RNA-MaP array; FMN 200 µM where present
# TEST CONTEXT: designed as: OFF switch for flavin mononucleotide; no ligand
# value in nM; strip the unit string

// sample AAAUUUAACGAAGGAUAUGCUGACAUGAGGAUCACCCAUGUGUGCCUUGUGUUACUGAUUAGGUUGCAGAAGGUCGUAUACAUA , its apparent Kd was 230

// sample CUAUUUAAUGCCUCAUGUACAUGAGGAUCACCCAUGUUAACUUAGGAUAUAUUUAUAUUGAUAGAGUAGAAGGAAGUACUAUUU , its apparent Kd was 25.4

// sample CUGUGACGGUGCGCAAGUGGACGGAGAAGGCACACAUGAGGAUCACCCAUGUGAGCCUGCUAUUGUGAGGAUAUCCGUUCGUAC , its apparent Kd was 5.52

// sample CGUGCGUAUGUGAGGAUAUGCUGGUCCUUGGAUCGGCAGAAGGCACAUGAGGAUCACCCAUGUGGUGUCGUCCA , its apparent Kd was 85.8

----------
# System: MS2 coat protein
# ASSAY SUMMARY: apparent Kd, MS2 coat protein; higher = weaker binding; RNA-MaP array; FMN 200 µM where present
# TEST CONTEXT: ligand present: flavin mononucleotide; designed as: OFF switch for flavin mononucleotide
Response key: true (1) means apparent Kd >= 50 nM; false (0) means apparent Kd < 50 nM.

CHAIN	CLASSIFICATION
UUCGUGCAGCUUUGCUGUACGCGUACAUGAGGAUCACCCAUGUAGGAUAUGGUAGGCUUUGUUUACUAGAAGGAUAGUGUGAUC	false (0)
GUCUUCCUAGGAUAUACAUGAGGAUCACCCAUGUAAAGUUUCGUCAAAGGAUAAUCGAGUAGAAGGAGGUGGAU	false (0)
CCACAGAUAGGAUAUACUGGGUGGGAUAAAUAUUUCCUGUGACAUGAGGAUCACCCAUGUAGAAGGAUCACAAG	false (0)
GAGAAGUCAGGAUAUGCAUGGCGGGACUUGCGUCGUGGCGUGCAGAAGGGACAUGAGGAUCACCCAUGUAAAGG	true (1)
AAAAAGUCAGGAUAUAUCAAAAAAAAAGAAAAAAAAAAAAGAUAGAAGGGACAUGAGGAUCACCCAUGUAAAAA	false (0)

Could you verify whether the entry UGUGUUUUUGUGAGGAUAUACUGUUUGUUUUGUUUGUAGAAGGUACAUGAGGAUCACCCAUGUUGUGUUUGGUU shows apparent Kd of no less than 50 nM? false (0)

Could you verify whether the entry UCUUAAGGAGGAUAUACAUGAGGAUCACCCAUGUAUGACCGCAGGGCGUCCUUGUAUCGUAGAAGGCCUCGGUA shows apparent Kd of no less than 50 nM? false (0)

----------
apparent Kd reference
# Tested on: MS2 coat protein
# ASSAY SUMMARY: apparent Kd, MS2 coat protein; higher = weaker binding; RNA-MaP array
# TEST CONTEXT: designed as: OFF switch for flavin mononucleotide; no ligand
# value in nM; strip the unit string

Recorded results for 6 sequences are shown here.
CHAIN	ENDPOINT LABEL	EXPERIMENTAL RESULT
CUCCUACAUGAGGAUCACCCAUGUGAGGAUAUCUCCCAGUGGGAAUAGUUUCCAUGGAAGAGAAGGCACAGUGA	apparent Kd	24.4
CGCCGUGAUUAGAAGGGUGGUGGGAAUCUUAUCACAGGAUAUAAAUAGGGCCGCUACAUGAGGAUCACCCAUGUCCUCCGGUCA	apparent Kd	200
UGACACAUGAGGAUCACCCAUGUUGGGUAAUGUUAACGUACAAGAAGGGCAGCCGGCCGGACGUUGCAGGAUAUUGUAGCGCGA	apparent Kd	41.7
UACCCAUUAGAGAAGGUUGACGCCCUAGUUGUCAAAGGAUAUCUCCUCGAGGCUACACAUGAGGAUCACCCAUGUUCACAGGUC	apparent Kd	9.35
AUUUCAAACAUGAGGAUCACCCAUGUCAAGUUUGAGCAACUAAGAAGGUCAGAUCCAUAAGCACUGAAGGAUAUUAAGAGGUAC	apparent Kd	31.8
UGCGGCGAAGGAUAUUGACCAAAACACAUGAGGAUCACCCAUGUACUCAUAACAUGCUAACAAGAAGGUCGCGUAA	apparent Kd	15.9

Turning now to a further record.
The reported MS2 coat protein apparent Kd of UAUUGGAUAGGAUAUACAUGAGGAUCACCCAUGUUUUCAUUGGACGAGGACGCUCUUCGUAGAAGGAUCGGCUA is 10.8
